tested target: Metabotropic glutamate receptor 2 (Homo sapiens)
Sequence (Q14416 whole entry): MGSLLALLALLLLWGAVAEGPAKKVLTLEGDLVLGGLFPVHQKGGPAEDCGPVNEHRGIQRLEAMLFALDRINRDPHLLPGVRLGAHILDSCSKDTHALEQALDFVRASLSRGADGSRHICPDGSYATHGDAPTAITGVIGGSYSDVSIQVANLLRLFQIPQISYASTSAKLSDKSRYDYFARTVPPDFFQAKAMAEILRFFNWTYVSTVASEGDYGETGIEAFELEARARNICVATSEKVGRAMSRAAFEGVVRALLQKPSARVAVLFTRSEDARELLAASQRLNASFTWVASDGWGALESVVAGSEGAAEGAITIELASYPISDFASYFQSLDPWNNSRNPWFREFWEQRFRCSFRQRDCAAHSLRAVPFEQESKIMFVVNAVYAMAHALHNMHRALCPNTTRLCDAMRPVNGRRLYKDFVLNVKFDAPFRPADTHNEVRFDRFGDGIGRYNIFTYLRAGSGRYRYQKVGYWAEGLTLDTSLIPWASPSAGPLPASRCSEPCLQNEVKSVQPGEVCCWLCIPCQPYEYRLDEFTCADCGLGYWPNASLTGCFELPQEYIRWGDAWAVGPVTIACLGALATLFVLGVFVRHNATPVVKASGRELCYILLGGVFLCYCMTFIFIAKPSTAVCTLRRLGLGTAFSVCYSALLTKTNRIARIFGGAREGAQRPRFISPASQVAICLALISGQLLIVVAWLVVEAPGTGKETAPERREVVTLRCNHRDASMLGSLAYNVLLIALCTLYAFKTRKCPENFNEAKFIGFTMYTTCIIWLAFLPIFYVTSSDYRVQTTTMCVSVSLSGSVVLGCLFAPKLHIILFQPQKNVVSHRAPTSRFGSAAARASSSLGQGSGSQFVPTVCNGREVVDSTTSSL
test method notes: Ability to block 1S,3R-ACPD-induced inhibition of forskolin stimulated cyclic-AMP in non-neuronal cell line expressing human Metabotropic glutamate receptor 2
Assay type: functional
The entries below are paired with their reported IC50.

compound: NC(CCc1ccccc1)(C(=O)O)[C@H]1C[C@@H]1C(=O)O (some centres undefined)
unit of measure: µM
IC50: 0.85
//
compound: NC(CCCc1ccccc1)(C(=O)O)[C@H]1C[C@@H]1C(=O)O (some centres undefined)
unit of measure: µM
IC50: 1
//
compound: Cn1cc(CCC(N)(C(=O)O)[C@H]2C[C@@H]2C(=O)O)c2ccccc21 (some centres undefined)
unit of measure: µM
IC50: 1.4
//
compound: NC(CC1CCCCC1)(C(=O)O)[C@H]1C[C@@H]1C(=O)O (some centres undefined)
unit of measure: µM
IC50: 1.1

The values you see were collected from ChEMBL document CHEMBL1131459.
